- study_system: T1, recombinant cynomolgus monkey CD112R antigen (cynomolgus monkey, UniProt A0A2K5WVV8 1-322)
- T1 construct: bought
- T1 sequence: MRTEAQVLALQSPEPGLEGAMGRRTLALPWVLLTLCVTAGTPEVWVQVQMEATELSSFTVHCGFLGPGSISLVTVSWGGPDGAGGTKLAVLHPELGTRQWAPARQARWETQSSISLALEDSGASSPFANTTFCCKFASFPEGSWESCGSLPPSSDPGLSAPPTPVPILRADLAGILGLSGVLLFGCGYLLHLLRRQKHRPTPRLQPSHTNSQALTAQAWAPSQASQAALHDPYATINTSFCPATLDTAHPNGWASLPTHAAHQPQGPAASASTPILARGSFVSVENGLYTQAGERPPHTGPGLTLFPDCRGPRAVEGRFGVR
- procedure_details: ELISA, coated cynomolgus monkey CD112R

- binder: "Chi-36 (antibody, V domains shown, chimeric) VH: EVQLQQSGPELVKPGASVRISCKASGYTFTDYNMHWVKQSHGKSLEWIGYIYPYNGGTGHNQNFKSKATLTVDKSSSTAYMEFRSLTSDDSAVYYCAREDFRHEKMDYWGQGTSVTVSS VL: DIQMTQSPASLSASVGETVTITCRTSDNIYVYLSWYQQKQGKSPQLLVYNAKTLTENVPSRFSGSGSGTQFSLKINSLQPEDFGSYYCQHHYGTPYTFGGGTKLEIK"
  EC50: "3.91 ng/mL"
- binder: "Chi-46 (antibody, V domains shown, chimeric) VH: DVKLVESGGGLVKLGGSLKLSCAASGFTFSSYHMSWVRQTPEKRLELVAAINSNVISTYYLDTVKGRFTISRDNAKNTLYLQMSSLKSEDTALYYCARHEDYYGFAMDYWGQGTSVTVSS VL: SIVMTQTPKFLLVSAGDRVTITCKASQSVSNDVAWYQQKPGQSPKLLMYYVSNRFTGVPDRFTGSGYGTDFTFTINTVQAEDLAVYFCQQAYRSPWTFGGGTKLEIK"
  EC50: "3.26 ng/mL"
- binder: "Chi-55 (antibody, V domains shown, chimeric) VH: DVKLVESGGGLVKLGGSLKLSCAASGFTFSSYHMSWIRQTPEKRLELVAAINSNGINTYYLDTVKGRFTISRDNAKNTLYLQMSSLKSEDTALYYCARHEDYYGFAMDYWGQGTSVTVSS VL: SIVMTQTPKFLLVSAGDRVTITCKASQSVTNDVAWYQQKPGQSPKLLMYYVSNHYTGVPDRFIGSGYGTDFTFTISTVQAEDLAVYFCQQAYRSPWTFGGGTKLEIK"
  EC50: "4.19 ng/mL"
- binder: "Chi-62 (antibody, V domains shown, chimeric) VH: DVKLVESGGGLVKLGGSLKLSCAASGFTFSSYHMSWVRQTPEKRLELVAAISRDGDSTYYPDTVKGRFTISRDDAENTLYLQMSSLKSEDTALYYCSRHEDYFGFAMDSWGQGTSVTVSS VL: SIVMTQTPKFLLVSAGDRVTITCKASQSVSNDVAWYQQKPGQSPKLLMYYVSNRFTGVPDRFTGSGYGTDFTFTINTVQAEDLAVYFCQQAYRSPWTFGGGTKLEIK"
  EC50: "3.71 ng/mL"
- binder: "Chi-45 (antibody, V domains shown, chimeric) VH: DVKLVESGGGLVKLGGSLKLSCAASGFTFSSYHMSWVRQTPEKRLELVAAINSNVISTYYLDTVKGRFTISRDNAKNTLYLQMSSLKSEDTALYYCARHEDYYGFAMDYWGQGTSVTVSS VL: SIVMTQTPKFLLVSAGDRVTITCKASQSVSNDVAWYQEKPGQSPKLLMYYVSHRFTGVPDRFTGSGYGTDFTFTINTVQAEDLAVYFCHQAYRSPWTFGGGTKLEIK"
  EC50: "2.98 ng/mL"

The measured values listed here are drawn from patent US20240309087A1.
